Source listed as PubChem BioAssay (NCI).

# Tested on: MDA-N
# procedure-summary: NCI tumour cell line growth inhibition, 48 h

# compound, TGI
records = [
    ("NC(CC(=O)O)(Cc1ccccc1)C(=O)O (configuration not stated)", "> 100 µM"),
    ("COC(=O)/C=C1/OC(c2ccc(C)cc2)=C(Cl)C1=O", "33.1 µM"),
    ("COc1ccc(-n2sc3ncc([N+](=O)[O-])cc3c2=O)cc1", "> 100 µM"),
    ("O=c1/c(=C/c2ccc([N+](=O)[O-])o2)sc2n1[C@@H](c1ccc3c(c1)OCO3)C=C(c1cc(F)c(Cl)cc1Cl)N=2", "43.3 µM"),
    ("CC1=CC(=O)/C(=C/n2c(=S)[nH]c3ccc([N+](=O)[O-])cc32)C(=O)O1", "> 100 µM"),
    ("CN1CCc2cc(N)cc3c2C1Cc1ccc2c(c1-3)OCO2 (configuration not stated)", "> 100 µM"),
    ("O=C1OC(CS(=O)(=O)c2ccccc2)CC1O (configuration not stated)", "> 100 µM"),
    ("CCN(CC)CCCNc1ncc(C)c2c1c1ccc3c(O)cccc3c1n2C", "3.01 µM"),
    ("C[N+](C)(CCO)CCN1c2ccccc2Sc2ccccc21", "> 10 µM"),
    ("Cn1c(=O)c2[nH]c(CCCCc3nc4c([nH]3)c(=O)n(C)c(=S)n4C)nc2n(C)c1=S", "> 100 µM"),
    ("c1cc(C[S+]2CCCC2)sc1C[S+]1CCCC1", "> 100 µM"),
    ("COC(=O)c1ccccc1C1CN=NC12Cc1cc(C)cc(C)c1C2=O (configuration not stated)", "> 100 µM"),
]
